These measurements were taken from paper PMC6815936.

Target: recombinant Cyp A (PPIA) (Homo sapiens)
Construct: purchased R&D Systems 3589-CAB
Sequence (P62937 whole entry): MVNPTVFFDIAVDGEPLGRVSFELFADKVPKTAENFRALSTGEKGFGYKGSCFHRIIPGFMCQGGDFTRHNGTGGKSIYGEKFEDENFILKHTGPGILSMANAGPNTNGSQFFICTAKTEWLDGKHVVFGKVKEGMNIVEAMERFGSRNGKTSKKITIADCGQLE
Experiment: Cyclophilin isomerase assay, Cyp A
Format: biochemical
Conditions: competitive enzyme inhibition model, multiple substrate concentrations, 4°C; read-out: Ki toward cyclophilin A
pKi: −log10 of the molar value. Square brackets hold non-standard residues; d marks the D form. Peptide text beside a SMILES is read from it. NMeThr(4R-Me,4-(CH2)6NHAc) = CN[C@H](C(=O)O)[C@H](O)[C@H](C)CCCCCCNC(C)=O; NMeL = CN[C@@H](CC(C)C)C(=O)O; NMeV = CN[C@H](C(=O)O)C(C)C; dNMeA = CN[C@H](C)C(=O)O; Abu = CC[C@H](N)C(=O)O
measurementType: pKi

[[record]]
compound = "CC[C@@H]1NC(=O)[C@H]([C@H](O)[C@H](C)CCCCCCNC(C)=O)N(C)C(=O)[C@H](C(C)C)N(C)C(=O)[C@H](CC(C)C)N(C)C(=O)[C@H](CC(C)C)N(C)C(=O)[C@@H](C)NC(=O)[C@H](C)NC(=O)[C@H](CC(C)C)N(C)C(=O)[C@H](C(C)C)NC(=O)[C@H](CC(C)C)N(C)C(=O)[C@@H](C)N(C)C1=O [CRV431] (cyclo(A[dA][NMeL][NMeL][NMeV][NMeThr(4R-Me,4-(CH2)6NHAc)][Abu][dNMeA][NMeL]V[NMeL]))"
measurementtarget = "recombinant Cyp A (PPIA) (Homo sapiens)"
observedvalue = 8.89

